- Test system: large crabgrass (Digitaria sanguinalis, DIGSA)
- Protocol text: Pre-emerge test, greenhouse herbicide activity screening
- Type: in vivo
- Applied conditions: 250 g ai/ha; phytotoxicity rating 0-100, 14 days after application
- Method: A standard greenhouse herbicide activity screening system was used to evaluate the herbicidal efficacy and crop safety of these test compounds. […] At 14 days after application of the test materials, phytotoxicity ratings were recorded. […]
Experimental readout: Pre-emerge Herbicidal Activity DIGSA
// keep it numeric: no unit symbol after the value

Known results for compounds:
The value of Pre-emerge Herbicidal Activity DIGSA measured for the compound CC(C)Oc1c(Cl)cc(F)c(-n2c(=O)cc(C(F)(F)F)n(C)c2=O)c1NC(=O)c1ccc2ccccc2c1 [2-197] turned out to be 100

The value of Pre-emerge Herbicidal Activity DIGSA measured for the compound COc1c(Cl)cc(F)c(-n2c(=O)cc(C(F)(F)F)n(C)c2=O)c1NC(=O)OCc1cccc(F)c1 [4-44] turned out to be 100

The value of Pre-emerge Herbicidal Activity DIGSA measured for the compound COc1c(Cl)cc(F)c(-n2c(=O)cc(C(F)(F)F)n(C)c2=O)c1NC(=O)OCc1cc(F)ccc1F [4-39] turned out to be 100

Others:
The value of Pre-emerge Herbicidal Activity DIGSA measured for the compound COc1c(Cl)cc(F)c(-n2c(=O)cc(C(F)(F)F)n(C)c2=O)c1NC(=O)OC(c1ccccc1)C1CC1 (centres unmarked) [4-46] turned out to be 95

The value of Pre-emerge Herbicidal Activity DIGSA measured for the compound COc1c(Cl)cc(F)c(-n2c(=O)cc(C(F)(F)F)n(C)c2=O)c1NC(=O)OCc1c(F)cccc1F [4-29] turned out to be 100

====

- Tested on: green foxtail (Setaria viridis, SETVI)
- Protocol text: Post-emerge test, greenhouse herbicide activity screening
- Type: in vivo
- Applied conditions: Rate 250 g ai/ha; rating scale 0-100 (0 no damage, 100 complete death); 14 days after application
Quick reference: Post-emerge Herbicidal Activity, phytotoxicity rating SETVI of the listed items.
// keep it numeric: no unit symbol after the value

Known results for compounds:
The value of Post-emerge Herbicidal Activity, phytotoxicity rating SETVI measured for the compound CCCCCOC(=O)C(C)(Cl)Cc1c(OC)c(Cl)cc(F)c1-n1c(=O)cc(C(F)(F)F)n(C)c1=O (stereo not shown) [14-37] turned out to be 100

The value of Post-emerge Herbicidal Activity, phytotoxicity rating SETVI measured for the compound COc1c(Cl)cc(F)c(-n2c(=O)cc(C(F)(F)F)n(C)c2=O)c1CC(C)(Cl)C(=O)OCCSC (stereo not shown) [14-48] turned out to be 100

The value of Post-emerge Herbicidal Activity, phytotoxicity rating SETVI measured for the compound CCCCOC(=O)C(Cl)Cc1c(OC)c(Cl)cc(F)c1-n1c(=O)cc(C(F)(F)F)n(C)c1=O (single isomer, unassigned) [14-8] turned out to be 40

Please turn your attention to the following entry.
The value of Post-emerge Herbicidal Activity, phytotoxicity rating SETVI measured for the compound COc1c(Cl)cc(F)c(-n2c(=O)cc(C(F)(F)F)n(C)c2=O)c1CC(Cl)C(=O)OC(C)(C)C (stereo not shown) [14-18] turned out to be 20

====

- Test system: upland rice (Oryza sp., var. Tebonnet, RICE)
- Protocol text: Post-emerge test, crop safety
- Type: in vivo
- Applied conditions: Rate 63 g ai/ha; rating scale 0-100 (0 no damage, 100 complete death); 14 days after application
Experimental readout: Post-emerge phytotoxicity rating RICE (crop damage)
// keep it numeric: no unit symbol after the value

The value of Post-emerge phytotoxicity rating RICE (crop damage) measured for the molecule CCCCCOC(=O)C(Cl)Cc1c(OC)c(Cl)cc(F)c1-n1c(=O)cc(C(F)(F)F)n(C)c1=O (single isomer, unassigned) [14-11] turned out to be 10

The value of Post-emerge phytotoxicity rating RICE (crop damage) measured for the molecule CCOC(=O)C(Br)Cc1c(OC)c(Cl)cc(F)c1-n1c(=O)cc(C(F)(F)F)n(C)c1=O (single isomer, unassigned) [14-33] turned out to be 0

The value of Post-emerge phytotoxicity rating RICE (crop damage) measured for the molecule CCOC(=O)C(Cl)Cc1cc(Cl)cc(F)c1-n1nc(C)n(C(F)F)c1=O (stereo not shown) turned out to be 0

The value of Post-emerge phytotoxicity rating RICE (crop damage) measured for the molecule COc1c(Cl)cc(F)c(-n2c(=O)cc(C(F)(F)F)n(C)c2=O)c1CC(Cl)C(=O)OCCOc1ccccc1 (single isomer, unassigned) [14-28] turned out to be 0

The value of Post-emerge phytotoxicity rating RICE (crop damage) measured for the molecule C#CCOC(=O)C(Cl)Cc1c(OC)c(Cl)cc(F)c1-n1c(=O)cc(C(F)(F)F)n(C)c1=O (single isomer, unassigned) [14-19] turned out to be 0

The value of Post-emerge phytotoxicity rating RICE (crop damage) measured for the molecule COc1c(Cl)cc(F)c(-n2c(=O)cc(C(F)(F)F)n(C)c2=O)c1CC(C)(Cl)C(=O)OC(C)C (stereo not shown) turned out to be 90

Others:
The value of Post-emerge phytotoxicity rating RICE (crop damage) measured for the molecule CCCCOC(=O)C(C)(Cl)Cc1c(OC)c(Cl)cc(F)c1-n1c(=O)cc(C(F)(F)F)n(C)c1=O (stereo not shown) turned out to be 35

The value of Post-emerge phytotoxicity rating RICE (crop damage) measured for the molecule COc1c(Cl)cc(F)c(-n2c(=O)cc(C(F)(F)F)n(C)c2=O)c1CC(Cl)C(=O)OCCC(C)C (single isomer, unassigned) turned out to be 0

The value of Post-emerge phytotoxicity rating RICE (crop damage) measured for the molecule CCOCCOC(=O)C(Cl)Cc1c(OC)c(Cl)cc(F)c1-n1c(=O)cc(C(F)(F)F)n(C)c1=O (stereo not shown) turned out to be 10

The value of Post-emerge phytotoxicity rating RICE (crop damage) measured for the molecule C#CCOC(=O)C(C)(Cl)Cc1c(OC)c(Cl)cc(F)c1-n1c(=O)cc(C(F)(F)F)n(C)c1=O (stereo not shown) turned out to be 90

The value of Post-emerge phytotoxicity rating RICE (crop damage) measured for the molecule COC(=O)C(Cl)Cc1c(OC)c(Cl)cc(F)c1-n1c(=O)cc(C(F)(F)F)n(C)c1=O (stereo not shown) turned out to be 5

The value of Post-emerge phytotoxicity rating RICE (crop damage) measured for the molecule COc1c(Cl)cc(F)c(-n2c(=O)cc(C(F)(F)F)n(C)c2=O)c1CC(Cl)C(=O)OC(C)(C)C (stereo not shown) turned out to be 10

The value of Post-emerge phytotoxicity rating RICE (crop damage) measured for the molecule COc1c(Cl)cc(F)c(-n2c(=O)cc(C(F)(F)F)n(C)c2=O)c1CC(Cl)C(=O)OCCOc1ccccc1 (single isomer, unassigned) [14-27] turned out to be 0

====

- System: lambsquarters (Chenopodium album, CHEAL)
- Protocol text: Post-emerge test, greenhouse herbicide activity screening
- Format: in vivo
- Applied conditions: post-emerge, 63 g ai/ha, 14 days after application, rating scale 0-100
- Method: A standard greenhouse herbicide activity screening system was used to evaluate the herbicidal efficacy and crop safety of these test compounds. […] At 14 days after application of the test materials, phytotoxicity ratings were recorded. […]
Quick reference: CHEAL phytotoxicity rating of the listed items.
// keep it numeric: no unit symbol after the value

Known results for molecules:
The value of CHEAL phytotoxicity rating measured for the molecule Cn1c(C(F)(F)F)cc(=O)n(-c2c(F)cc(Cl)cc2NC2CC2)c1=O turned out to be 100

The value of CHEAL phytotoxicity rating measured for the molecule CCOC(=O)C(C)Oc1ccc(-n2c(=O)cc(C(F)(F)F)n(C)c2=O)c(NC(=O)c2ccc3ccccc3c2)c1 (centres unmarked) turned out to be 30

The value of CHEAL phytotoxicity rating measured for the molecule CCOC(=O)COc1c(Cl)cc(F)c(-n2c(=O)cc(C(F)(F)F)n(C)c2=O)c1NC(=O)C=Cc1ccccc1 turned out to be 90

The value of CHEAL phytotoxicity rating measured for the molecule CCOC(=O)C(C)SCC(=O)Nc1c(OC)c(Cl)cc(F)c1-n1c(=O)cc(C(F)(F)F)n(C)c1=O (centres unmarked) turned out to be 40

The value of CHEAL phytotoxicity rating measured for the molecule CCSCC(=O)Nc1c(OC)c(Cl)cc(F)c1-n1c(=O)cc(C(F)(F)F)n(C)c1=O turned out to be 35

Others:
The value of CHEAL phytotoxicity rating measured for the molecule COc1c(Cl)cc(F)c(-n2c(=O)cc(C(F)(F)F)n(C)c2=O)c1NC(=O)CSc1ccc2ccccc2c1 turned out to be 30

The value of CHEAL phytotoxicity rating measured for the molecule COc1c(Br)cc(F)c(-n2c(=O)cc(C(F)(F)F)n(C)c2=O)c1NC(=O)C=Cc1ccccc1 turned out to be 100

The value of CHEAL phytotoxicity rating measured for the molecule N#CCOc1c(Cl)cc(F)c(-n2c(=O)cc(C(F)(F)F)n(N)c2=O)c1NC(=O)c1ccc2ccccc2c1 turned out to be 80

The value of CHEAL phytotoxicity rating measured for the molecule COc1ccccc1C=CC(=O)Nc1c(OC)c(Cl)cc(F)c1-n1c(=O)cc(C(F)(F)F)n(C)c1=O turned out to be 70

The value of CHEAL phytotoxicity rating measured for the molecule COc1c(Cl)cc(F)c(-n2c(=O)cc(C(F)(F)F)n(C)c2=O)c1NC(=O)C=Cc1ccccc1F turned out to be 100

The value of CHEAL phytotoxicity rating measured for the molecule Cn1c(C(F)(F)F)cc(=O)n(-c2ccc(Cl)cc2NC(=O)C=Cc2ccccc2)c1=O turned out to be 100

The value of CHEAL phytotoxicity rating measured for the molecule CCOC(=O)CSCC(=O)Nc1c(OC)c(Cl)cc(F)c1-n1c(=O)cc(C(F)(F)F)n(C)c1=O turned out to be 60

The value of CHEAL phytotoxicity rating measured for the molecule COc1c(Cl)cc(F)c(-n2c(=O)cc(C(F)(F)F)n(C)c2=O)c1NC(=O)CCc1cc(C)ccc1C turned out to be 100

The value of CHEAL phytotoxicity rating measured for the molecule Cn1c(C(F)(F)F)cc(=O)n(-c2ccc(C#N)cc2NC(=O)c2ccc3ccccc3c2)c1=O turned out to be 100
